System: CEM cells HIV-1 protection, formazan growth assay
Assay: NCI AIDS Antiviral Assay
Conditions: measured here: growth of uninfected CEM cells
parameter: IC50

Return the recorded IC50 value; entry: COc1cccc(N2C(=O)[C@H]3CC(C)c4c([nH]c5ccccc45)[C@H]3C2=O)c1 (some centres undefined)
> 35.5 µM

Return the recorded IC50 value; entry: "Cc1ccc2oc(=O)c(C#N)c(/C=C/c3ccc(Cl)cc3)c2c1"
> 200 µM

Return the recorded IC50 value; entry: "Cc1cc(S(=O)(=O)Nc2nnc3c(C(F)(F)F)cc(Cl)cn23)c(S)cc1Cl"
170 µM

Return the recorded IC50 value; entry: CC1CC(=O)Nc2ccccc2N1 (centres undefined)
> 200 µM

Return the recorded IC50 value; entry: "COC(=O)c1cc(Cc2cc(C(=O)OC)c(OC)c(C(F)(F)F)c2)cc(C(F)(F)F)c1OC"
25.7 µM

Return the recorded IC50 value; entry: Cc1c(O)c(OC2OC(CO)C(O)C(O)C2O)cc2c1CC[C@@H]1C2(C)C(=O)C[C@]2(C)[C@@H]([C@@](C)(O)C(=O)CCC(C)(C)O)[C@H](O)C[C@@]12C (some centres undefined)
> 200 µM

Return the recorded IC50 value; entry: "CCOC(=O)CC[P+](c1ccccc1)(c1ccccc1)c1ccccc1"
21.4 µM

Return the recorded IC50 value; entry: O=C(O)C1[S][Bi]([S]C(C(=O)O)C([S][Bi]2[S]C(C(=O)O)C(C(=O)O)[S]2)C(=O)O)[S]C1C(=O)O (centres undefined)
> 1.32 µM

Return the recorded IC50 value; entry: "O=C1CNCCCN2CCN(CCCNCC(=O)Nc3ccc(cc3)S(=O)(=O)c3ccc(cc3)NC(=O)CNCCCN3CCN(CCCNCC(=O)Nc4ccc(cc4)S(=O)(=O)c4ccc(cc4)N1)CC3)CC2"
> 50.1 µM

Return the recorded IC50 value; entry: "COc1ccc(C(=O)c2ccc(OC)c(S(=O)(=O)N(C)C=O)c2)cc1S(=O)(=O)N(C)C=O"
> 38.9 µM

Return the recorded IC50 value; entry: CC1(C)COC2(C)N(c3ccccc3)C(=O)ON12 (centres undefined)
> 200 µM

Return the recorded IC50 value; entry: "C[C@]12CC[C@H]3[C@@H](CCC4=C/C(=N/OCCN5CCCCC5)CC[C@@]43C)[C@@H]1CC[C@@H]2O"
4.17 µM

Return the recorded IC50 value; entry: "Cc1ccc(S(=O)(=O)N2CCSCCSCCSCCSCC2)cc1"
> 12 µM

Return the recorded IC50 value; entry: CCCCN=NNc1cn(C2OC(CO)C(O)C2O)c(=O)[nH]c1=O (centres undefined)
> 200 µM

Return the recorded IC50 value; entry: CCOC(=O)C1=C(SC)SC(C(=O)OCC)C2C=C(C)C=CN12 (centres undefined)
45.7 µM

Return the recorded IC50 value; entry: CCOC(=O)C1=CN=C2C(=O)N(c3ccccc3)N(C)C2(C)C1=N (centres undefined)
> 200 µM

* * *

System: CEM cells HIV-1 protection, formazan growth assay
Assay: NCI AIDS Antiviral Assay;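 active = compounds giving half or more protection of infected cells from virus-caused growth loss, again on retest; inactive = the rest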
Returns: one label drawn from active, inactive

The following molecules have reported results that may help.
molecule	target or system	assigned class
Nc1ccc2c(c1)C(=O)OC2(C(F)(F)F)C(F)(F)F	CEM cells HIV-1 protection, formazan growth assay	inactive
COC(=O)c1ccccc1/C=C1/Cc2cccc(C)c2C1=O	CEM cells HIV-1 protection, formazan growth assay	inactive

Hi, do you know how "CCOC(=O)c1[nH]n(-c2ccccc2)c(=O)c1/C=N/C(N)=S" came out in this test?
inactive

Hi, do you know how O=C(O)C1CC(C2CCCCN2)CN2CCCCC12 (stereo not given) came out in this test?
inactive

Hi, do you know how "CSC1=C(SC)SC(=C2SC3=C(SC(=C4SCCS4)S3)S2)S1" came out in this test?
inactive

Hi, do you know how "COn1c2ccccc2c2c1cc1ccccc1[n+]2[O-]" came out in this test?
inactive

Hi, do you know how "COC(=O)[C@@H]1[C@H]2CC[C@]3(C)[C@@H](OC(C)=O)CC[C@H]3[C@@H]2CC[C@H]1C1(C)SCCS1" came out in this test?
active

* * *

Tested on: CEM cells HIV-1 protection, formazan growth assay
Assay: NCI AIDS Antiviral Assay
Conditions: measured here: growth of uninfected CEM cells
Description: The ability of compounds to protect human CEM cells from HIV-1 infection is measured as a screen for new compounds capable of inhibiting the HIV virus. Five concentrations of drug were tested on uninfected and infected cells and cell growth was measured using a soluble formazan assay. […] Compounds that provided at least 50% protection were retested. Compounds that provided at least 50% protection on retest were listed as moderately active. […]
parameter: IC50

Completed entries (count: 3):
molecule	IC50
CC(C)CC1C(=O)NCCC(NC(=O)C(N)Cc2ccc(O)cc2)C(=O)NC(Cc2ccccc2)C(=O)NC(Cc2ccccc2)NC1=O (centres undefined)	> 100 µM
COc1ccc(-c2cc3c(c4cc(OC)ccc24)C(=O)OC3=O)cc1	> 11.2 µM
O=C(N=c1nc2ccccn2s1)c1ccccc1	> 53.7 µM

Moving on to the next molecule.
Return the recorded IC50 value; entry: C=CC(CCC(C)O)[Si](C)(C)C (centres undefined)
> 977 µM

* * *

Below is a list of entries, each paired with its recorded pIC50 value.
Test system: CEM cells HIV-1 protection, formazan growth assay
Assay: NCI AIDS Antiviral Assay
Conditions: measured here: growth of uninfected CEM cells
pIC50: −log10 of the molar value.

Completed entries (count: 5):
compound	target or system	pIC50
CCOP(=O)(OCC)/C(C#N)=C/c1ccccn1	CEM cells HIV-1 protection, formazan growth assay	< 3.70
Clc1cccc(Cl)c1C=NC12CC3CC(CC(C3)C1)C2	CEM cells HIV-1 protection, formazan growth assay	< 3.70
Cc1[nH]n(C2=NCCN2)c(=O)c1Cc1ccccc1	CEM cells HIV-1 protection, formazan growth assay	< 3.70
CC1C(=O)N2C(=O)C(C)C(C)C(=O)N2C(=O)C1C (stereo not drawn)	CEM cells HIV-1 protection, formazan growth assay	< 4.27
Cn1c2ccccc2c2nnc(NCCCCO)nc21	CEM cells HIV-1 protection, formazan growth assay	< 3.70

Return the recorded pIC50 value; entry: NC(Cc1ccc(OCc2ccccc2)cn1)C(=O)OCc1ccccc1 (stereo not drawn)
< 3.70

Return the recorded pIC50 value; entry: "NC(CSS(=O)(=O)O)=NCc1ccccc1"
< 3.70

Return the recorded pIC50 value; entry: "O=c1c(O)c(-c2ccc3c(c2)OCO3)oc2c(Cl)cc(Cl)cc12"
< 4.00

Return the recorded pIC50 value; entry: CCOc1ccc2nc(NC(=O)C(=O)C(C(=O)c3ccccc3F)C3OC(=O)c4ccccc43)sc2c1 (stereo not drawn)
5.09

Return the recorded pIC50 value; entry: "Cc1ccc(S(=O)(=O)n2ccc(-c3ccc4ccn(S(=O)(=O)c5ccc(C)cc5)c4c3)c2)cc1"
4.06

Return the recorded pIC50 value; entry: "C/C(=N/O)c1ccc2c(c1)C(=NO)c1cc(/C(C)=N/O)ccc1-2"
4.94

Return the recorded pIC50 value; entry: "CC(C)N(C(=O)c1cccc(C(=O)N(C(C)C)C(C)C)c1)C(C)C"
3.33

Return the recorded pIC50 value; entry: "C/C=C/C=Nc1c(C#N)c2n(c1C(=O)Nc1ccccc1)CCCC2"
< 4.30

* * *

Below is a list of entries, each paired with its recorded IC50 value.
System: CEM cells HIV-1 protection, formazan growth assay
Experiment: NCI AIDS Antiviral Assay
Conditions: measured here: growth of uninfected CEM cells
Field: numeric (µM). Do not append units.

Completed entries (count: 2):
compound	parameter	measured result
CSC1=N/C(=C\c2ccc(Cl)cc2)C(=O)N1CN1CCOCC1	IC50	33.1
COc1ccc(C2SCC(=O)N2c2ccc(-c3ccc(-n4c(-c5ccccc5)nc5ccccc5c4=O)cc3)cc2)cc1 (stereo unspecified)	IC50	33.9

Return the recorded IC50 value; entry: CCOC1CN(C)C(=Nc2cccc3ccccc23)S1 (stereo unspecified)
148

Return the recorded IC50 value; entry: "Cc1ccc2oc(=O)c(C#N)c(/C=C\c3ccccc3O)c2c1"
5.62

Return the recorded IC50 value; entry: "S=C(N/N=C/c1ccccn1)N1CCCCCC1"
0.0105

Return the recorded IC50 value; entry: "CCCC(CCC)C(=O)[O-].CCCC(CCC)C(=O)[O-].CCCC(CCC)C(=O)[O-].CCCC(CCC)C(=O)[O-].[Cu+2].[Cu+2]"
7.41

* * *

Test system: CEM cells HIV-1 protection, formazan growth assay
Test: NCI AIDS Antiviral Assay
parameter: EC50

molecule	parameter	measured result
COc1ccc(-c2ccccc2)cc1S	EC50	> 200 µM
CCC1(O)C(=O)OCc2c1cc1n(c2=O)Cc2cc3cc(OC)c(OC)cc3nc2-1 (stereo unspecified)	EC50	> 10 µM
COC(=O)/C(=N/NC(N)=O)C(C(=O)C(=O)Nc1ccc(C)cc1)c1nc2ccc(C(=O)c3ccccc3)cc2[nH]c1=O (stereo unspecified)	EC50	> 33.1 µM

Return the recorded EC50 value; entry: "Cc1cc(N(CCC#N)CCC#N)ccc1N=Nc1cccc(Cl)c1"
> 7.76 µM

Return the recorded EC50 value; entry: CC(NNC(=O)c1ccncc1)c1cccc(C(F)(F)F)c1 (stereo unspecified)
> 200 µM

Return the recorded EC50 value; entry: "CCCCCCCCCCCCOc1ccc(/C(=N\N=C(N)N)c2ccccc2)c(O)c1"
> 200 µM

Return the recorded EC50 value; entry: "[N-]=[N+]=NC12CC3C4CC5CC3C(C1)C(C5)C4C2"
> 282 µM

Return the recorded EC50 value; entry: O=[N+]([O-])c1cccc(C2=NN(c3ccccc3)C3c4cc(Br)ccc4OCC23)c1 (stereo unspecified)
> 11.5 µM

Return the recorded EC50 value; entry: "CCn1c2ccccc2c2c(-c3ccccc3)cc3c(c21)C(=O)N(c1ccccc1)C3=O"
> 6.61 µM

Return the recorded EC50 value; entry: "Nc1c(N=Nc2ccc([N+](=O)[O-])cc2)c(S(=O)(=O)O)cc2cc(S(=O)(=O)O)c(N=Nc3ccc(-c4ccc(N=Nc5ccc(O)cc5)cc4)cc3)c(O)c12"
> 100 µM

Attribution: PubChem BioAssay AID179
